Every entry's value here was drawn from BigSolDB 2.1.

settings: in NMP, 278.15 K
attribute_measured: solubility (mole fraction)

Returns the measured solubility (mole fraction) for the input compound. Input: CC(=O)c1cnccn1 0.15

* * *

settings: in isopropanol, 283.21 K
attribute_measured: solubility (mole fraction)
Give the figure by itself; no unit, no explanation.

// lookup solubility (mole fraction) for CC(=O)c1cnccn1 0.0128

* * *

settings: in NMP, 273.15 K
attribute_measured: solubility (mole fraction)
Just the number.

Reported solubility (mole fraction), compound CC(=O)c1cnccn1 : ____ 0.129

* * *

settings: in ethanol, 278.15 K
attribute_measured: solubility (mole fraction)
Format: numeric value only, no unit, no commentary.

Can you share its solubility (mole fraction)? I mean this compound: CC(=O)c1cnccn1 0.0136

* * *

settings: in acetone, 268.35 K
attribute_measured: solubility (mole fraction)

// lookup solubility (mole fraction) for CC(=O)c1cnccn1 0.0511

* * *

settings: in isopropanol, 288.15 K
attribute_measured: solubility (mole fraction)

Any idea what its solubility (mole fraction) is? The compound is CC(=O)c1cnccn1 0.0195

* * *

settings: in NMP, 303.15 K
attribute_measured: solubility (mole fraction)
Reply with just the number.

# lookup: solubility (mole fraction) of CC(=O)c1cnccn1 0.31

* * *

settings: in ethanol, 298.15 K
attribute_measured: solubility (mole fraction)
Respond using a number only.

Request the reported solubility (mole fraction) associated with CC(=O)c1cnccn1 0.0433

* * *

settings: in NMP, 298.15 K
attribute_measured: solubility (mole fraction)
Form rule: numeric answer, no unit written next to it.

What measured solubility (mole fraction) goes with CC(=O)c1cnccn1 ? 0.271

* * *

settings: in ethyl acetate, 268.35 K
attribute_measured: solubility (mole fraction)
Output: the number by itself.

Reported solubility (mole fraction), compound CC(=O)c1cnccn1 : ____ 0.0636

* * *

settings: in isopropanol, 278.15 K
attribute_measured: solubility (mole fraction)
Lab note: write the figure by itself, no unit.

solubility (mole fraction) lookup needed for CC(=O)c1cnccn1 , thanks. 0.0106

* * *

settings: in isopropanol, 273.15 K
attribute_measured: solubility (mole fraction)
Quick one: just the number, no unit, thanks!

// query solubility (mole fraction) value for entry CC(=O)c1cnccn1 0.0075

* * *

settings: in methanol, 298.15 K
attribute_measured: solubility (mole fraction)
Enter a number only.

May I ask what solubility (mole fraction) has been recorded for CC(=O)c1cnccn1 ? 0.0485

* * *

settings: in NMP, 293.05 K
attribute_measured: solubility (mole fraction)
Give only the figure.

Suppose we examine the compound CC(=O)c1cnccn1 ; what solubility (mole fraction) value has been reported? 0.234

* * *

settings: in methanol, 293.05 K
attribute_measured: solubility (mole fraction)
// no unit string in output, number only

What measured solubility (mole fraction) goes with CC(=O)c1cnccn1 ? 0.0405

* * *

settings: in isopropanol, 298.15 K
attribute_measured: solubility (mole fraction)
API note: the answer field is a bare number with no unit suffix.

// returns reported solubility (mole fraction) for input CC(=O)c1cnccn1 0.0382

* * *

settings: in NMP, 283.21 K
attribute_measured: solubility (mole fraction)

Param item = CC(=O)c1cnccn1 ; retrieve measured solubility (mole fraction). 0.174

* * *

settings: in ethanol, 268.35 K
attribute_measured: solubility (mole fraction)
// keep it numeric: no unit symbol after the value

# solubility (mole fraction) lookup, item CC(=O)c1cnccn1 0.0073

* * *

settings: in methanol, 288.15 K
attribute_measured: solubility (mole fraction)
In your answer, state the number alone without any accompanying words.

Can you look up the measured solubility (mole fraction) of CC(=O)c1cnccn1 for me? 0.0281

* * *

settings: in NMP, 308.35 K
attribute_measured: solubility (mole fraction)
Give only the figure.

Query: solubility (mole fraction); subject: CC(=O)c1cnccn1 0.355

* * *

settings: in ethanol, 308.35 K
attribute_measured: solubility (mole fraction)
I only need the number, thanks.

Which value of solubility (mole fraction) has been reported for CC(=O)c1cnccn1 in the records? 0.0727

* * *

settings: in NMP, 268.35 K
attribute_measured: solubility (mole fraction)
The response must contain the number and no unit.

Quick check: solubility (mole fraction) of CC(=O)c1cnccn1 ? 0.117

* * *

settings: in isopropanol, 293.05 K
attribute_measured: solubility (mole fraction)

So what does the record say about solubility (mole fraction) for CC(=O)c1cnccn1 ? 0.0299

* * *

settings: in acetone, 273.15 K
attribute_measured: solubility (mole fraction)
Returns: the value as a bare number; no unit string appended.

Please give the measured solubility (mole fraction) for this molecule: CC(=O)c1cnccn1 0.0601

* * *

settings: in acetone, 293.05 K
attribute_measured: solubility (mole fraction)
// return a plain number; no unit text

Endpoint output: solubility (mole fraction) of CC(=O)c1cnccn1 . Value? 0.119

* * *

settings: in DMF, 283.21 K
attribute_measured: solubility (mole fraction)

// lookup solubility (mole fraction) for CC(=O)c1cnccn1 0.139

* * *

settings: in ethyl acetate, 308.35 K
attribute_measured: solubility (mole fraction)
// return a plain number; no unit text

Value lookup for solubility (mole fraction); key = CC(=O)c1cnccn1 0.209

* * *

settings: in DMF, 288.15 K
attribute_measured: solubility (mole fraction)
I only need the number, thanks.

What measured solubility (mole fraction) goes with CC(=O)c1cnccn1 ? 0.165

* * *

settings: in ethanol, 293.05 K
attribute_measured: solubility (mole fraction)
Field format: numeric only.

solubility (mole fraction) for CC(=O)c1cnccn1 ? 0.0347

* * *

settings: in methanol, 308.35 K
attribute_measured: solubility (mole fraction)
// no unit, no text: just the number

Give the measured solubility (mole fraction) of CC(=O)c1cnccn1 . 0.077

* * *

settings: in acetone, 303.15 K
attribute_measured: solubility (mole fraction)
Form field (numeric): enter value without unit.

// solubility (mole fraction) lookup, key: CC(=O)c1cnccn1 0.153

* * *

settings: in ethanol, 283.21 K
attribute_measured: solubility (mole fraction)
Reply briefly: the number, and no unit.

# input molecule: CC(=O)c1cnccn1 ; wanted: its solubility (mole fraction) 0.0178

* * *

settings: in DMF, 298.15 K
attribute_measured: solubility (mole fraction)
Hey, just send me the number, nothing else.

If you can, please state the reported solubility (mole fraction) value of CC(=O)c1cnccn1 . 0.23

* * *

settings: in ethyl acetate, 303.15 K
attribute_measured: solubility (mole fraction)
Just the number, please, no unit after it.

Param item = CC(=O)c1cnccn1 ; retrieve measured solubility (mole fraction). 0.186

* * *

settings: in ethyl acetate, 298.15 K
attribute_measured: solubility (mole fraction)

Recorded solubility (mole fraction) of CC(=O)c1cnccn1 , please. 0.164

* * *

settings: in ethanol, 303.15 K
attribute_measured: solubility (mole fraction)

Which measured solubility (mole fraction) value corresponds to CC(=O)c1cnccn1 ? 0.0542

* * *

settings: in ethanol, 288.15 K
attribute_measured: solubility (mole fraction)

Data request, read-out solubility (mole fraction), for CC(=O)c1cnccn1 0.0231

* * *

settings: in DMF, 278.15 K
attribute_measured: solubility (mole fraction)
// return a plain number; no unit text

Given the compound CC(=O)c1cnccn1 , what is its reported solubility (mole fraction)? 0.116

* * *

settings: in methanol, 268.35 K
attribute_measured: solubility (mole fraction)
Enter the number alone.

Which solubility (mole fraction) is listed for CC(=O)c1cnccn1 ? 0.013
